Data origin, for the record: PubChem BioAssay (NCI)

# System: HL-60(TB) leukemia
# ASSAY_PROTOCOL: NCI tumour cell line growth inhibition, 48 h
If the reported TGI equals or exceeds 6 µM, assign t. If not, assign f.

MOLECULE | CLASS_LABEL
CC1=CC(=O)c2c(O)c3c(c(O)c2C1=O)C1C(O)C(C3=O)C23C(=O)c4c(O)c(C)cc(O)c4C(O)=C2C(=O)CC(O)C13 (stereo not drawn) | t
CCN(CC)C(=S)S | t
COC(=O)[C@]1(C)[C@H]2C[C@H]3O[C@H]4[C@H](O)[C@@H](O)OC(CC(O)C(C5=CC(=O)OC5)C(C5=CC(=O)OC5)C(O)CC56CCCCC7[C@@H](C)[C@H](C[C@H]8[C@](C)(C(=O)OC)[C@H](O)CC[C@]78C)O[C@H]([C@@H](O)[C@H](O)O5)[C@H]6O)(CCCCC([C@@H]3C)[C@]2(C)CC[C@@H]1O)[C@H]4O (stereo partly drawn) | f
CCc1ccc(C2=NN(c3ccc(S(C)(=O)=O)cc3)C(=O)CC2)cc1 | t
CCC1=C(c2ccc(OC)cc2)CC[C@]2(CCNC2=O)[C@@H]1C | t
CC(C)(Oc1ccc(/C=C/C(=O)c2ccccc2)cc1)C(=O)Nc1c(Cl)cccc1Cl | t
Nc1n[nH]c2ccc([C@@H]3Nc4c(F)cc5[nH]ncc5c4[C@H]4C5CCC(C5)[C@@H]34)cc12 (stereo partly drawn) | f
Cn1c(CC(O)c2nc3ccccc3n2C)nc2ccccc21 (stereo not drawn) | f

====

# Test system: EKVX NSCLC
# ASSAY_PROTOCOL: NCI tumour cell line growth inhibition, 48 h
RECORDED_METRIC: TGI

COMPOUND | TESTED_SYSTEM | OBSERVED_VALUE
CC(=O)O[C@H]1C[C@H]2[C@@H]([C@H](OC(C)=O)C[C@@H]3CC4(CC[C@@]32C)OOC2(CCCCC2)OO4)[C@@H]2CC[C@H]([C@H](C)CCC(=O)O)[C@@]12C | EKVX NSCLC | 4.76 µM
COc1cc(S(=O)(=O)Nc2ccc(-c3csc(/N=C\c4cccs4)n3)cc2)ccc1Cl | EKVX NSCLC | > 100 µM
Cn1c(CC(O)c2nc3ccccc3n2C)nc2ccccc21 (centres undefined) | EKVX NSCLC | > 100 µM
Brc1ccc(-c2nc(-c3ccc(Br)cc3)n(-c3ccccc3)n2)cc1 | EKVX NSCLC | > 100 µM
NNC(=O)N/N=C1\CNC(=O)C(=O)C1c1nc2ccccc2s1 (centres undefined) | EKVX NSCLC | > 100 µM
Nc1c(C(=O)Nc2ccccc2O)[n+]([O-])c2ccccc2[n+]1[O-] | EKVX NSCLC | > 100 µM
Nc1ncnc2c1ncn2CCOC(c1ccccc1)P(=O)(O)O (centres undefined) | EKVX NSCLC | > 100 µM
C=C(C)[C@@H]1CC[C@]2(C(=O)n3ccnc3)CC[C@]3(C)[C@H](CC[C@@H]4[C@@]5(C)CCCNC(C)(C)[C@@H]5CC[C@]43C)[C@@H]12 | EKVX NSCLC | 4.1 µM
Nc1c(-c2nc3ccccc3s2)[n+]([O-])c2ccccc2[n+]1[O-] | EKVX NSCLC | > 100 µM

====

# System: EKVX NSCLC
# ASSAY_PROTOCOL: NCI tumour cell line growth inhibition, 48 h
RECORDED_METRIC: TGI (µM)

COMPOUND | UNIT_TAG | RESULT_MODIFIER | OBSERVED_VALUE
O=c1c2cccc3cccc(c4n1CCCN=4)c32 | µM | > | 100
CN(CCCNC(=O)c1c2ccc3ccccc3c2nn1C)CCCNC(=O)c1c2ccc3ccccc3c2nn1C | µM | = | 22.3
CC(=O)Oc1ccc2cc(Oc3ccccc3)c(=O)oc2c1 | µM | > | 100
c1csc(C(NC2=NCCO2)C2CC2)c1 (centres undefined) | µM | > | 100
CCCCOCCOCCOC1=C(Cl)C(=O)c2c(O)ccc(O)c2C1=O | µM | = | 6.96
CC1=CC(=O)c2c(O)c3c(c(O)c2C1=O)C1C(O)C(C3=O)C23C(=O)c4c(O)c(C)cc(O)c4C(O)=C2C(=O)CC(O)C13 (centres undefined) | µM | = | 8.21
CN1CCOCCOCCOc2ccccc2NC(=O)c2nc(cnc2N)-c2ccc(cc2)S1(=O)=O | µM | > | 100
CC1CCN(c2cc(-c3cc4ccccc4o3)oc(=O)c2C#N)CC1 | µM | > | 100
Clc1cccc(C2SCc3nc4ccccc4n32)c1 (centres undefined) | µM | = | 52.4

====

Here the recorded GI50 is given for each entry.
# Tested on: ACHN renal
# ASSAY_PROTOCOL: NCI tumour cell line growth inhibition, 48 h

COMPOUND | GI50
COc1ccc(C(=O)/C=C/c2ccc(OCc3ccccc3)c(OC)c2)cc1OC | 4.31 µM
Oc1ccc(-c2[nH]c3ccccc3c2-c2nc3ccccc3o2)cc1 | 3.58 µM
COc1ncc2cc1NS(=O)(=O)c1cccc(c1)C(=O)NCC1=CC=C(S1)c1ncnc3c1SC2=C3C | 0.592 µM
CN(C)CCS(=O)(=O)Nc1cc(-c2ccc3ncnc(Nc4ccc(F)c(Cl)c4)c3c2)cnc1Cl | 0.392 µM
CC1(C)N=C(N)N=C(N)N1c1ccc(OCCCCNC(=O)Nc2cccc(S(=O)(=O)F)c2)c(Cl)c1 | 22.3 µM
Cc1cc(-c2ccco2)cc(C)c1/C=C/c1cncc(-c2nn[nH]n2)c1 | > 25 µM
Cc1ccc(-c2nc(C(Cl)Cl)nc3cc(C)nn23)cc1 | 0.783 µM
O=S(=O)(NCCCNc1nccc(-c2c(-c3cccc(F)c3)nc3occn23)n1)c1cccc2ccccc12 | 3.64 µM
Cc1nn2c(-c3nc4cc(Cl)c(Cl)cc4[nH]3)c(-c3ccc(F)cc3)nc2s1 | 1.7 µM
O=C1C2C(C(=O)N1CC[Se][Se]CCN1C(=O)C3C(C1=O)[C@H]1C=C[C@@H]3C1)[C@H]1C=C[C@@H]2C1 (some centres undefined) | 0.408 µM
N=C(N)c1ccc(OCCCCCOc2ccc(C(=N)N)cc2)cc1 | 18.5 µM
Cc1cn2c(/C=C3/C(=O)Nc4ccc(C(=O)O)cc43)c(C)nc2s1 | > 100 µM
Cc1n(Cc2ccc3ccccc3n2)cc[n+]1Cc1ccc2ccccc2c1 | 9.46 µM
C=CC[PH+](c1ccccc1)c1ccccc1.C=CC[PH+](c1ccccc1)c1ccccc1.[Pt+2].[S-]c1ncccn1.[S-]c1ncccn1 | 2.14 µM

====

# Tested on: SR leukemia
# ASSAY_PROTOCOL: NCI tumour cell line growth inhibition, 48 h
Where a SMILES comes first, the peptide text is derived from it. The star is where a group is joined. Boc = CC(C)(C)OC(=O)*; tBu = CC(C)(C)*
RECORDED_METRIC: TGI

MOLECULE | OBSERVED_VALUE
O=c1c2ccccc2n2cnc3ccc(NCCNCCO)c1c32 | > 33.6 µM
Cc1ccc(C(=O)N2C/C(=C/c3ccccc3)C(=O)/C(=C/c3ccccc3)C2)cc1 | 9.09 µM
NC(N)=N/N=C\c1c(-c2ccccc2)nc2sccn12 | > 100 µM
Nc1ncc(Sc2ccccc2C(=O)O)s1 | > 100 µM
CC(OC(C)(C)C)C(NC(=O)C(N)CCCCNC(=O)OC(C)(C)C)C(=O)NC(Cc1ccccc1)C(=O)O (stereo not given) (H-Lys(Boc)-Thr(tBu)-Phe-OH; configuration not given here) | > 100 µM

====

Here the recorded TGI is given for each entry.
# Tested on: TK-10 renal
# ASSAY_PROTOCOL: NCI tumour cell line growth inhibition, 48 h
RECORDED_METRIC: TGI

COMPOUND | TESTED_SYSTEM | RECORDED_METRIC | OBSERVED_VALUE
C=CC1(O)CCCC=C1COCc1ccccc1 (stereo unspecified) | TK-10 renal | TGI | > 100 µM
C=CCCCCCCCCC(=O)ON(Cc1ccc(O)c(OC)c1)C(=O)C(F)(F)F | TK-10 renal | TGI | > 100 µM
CC(=O)c1c(O)c2c([nH]c1=O)CCCC2 | TK-10 renal | TGI | > 100 µM
O=C1CC(=O)NC(=NN2C(=O)/C(=C/c3ccc(Cl)cc3)N=C2c2ccccc2)N1 | TK-10 renal | TGI | 43.2 µM
O=c1c2cccc3cccc(c4n1CCCN=4)c32 | TK-10 renal | TGI | > 100 µM
O[C@]12c3ccccc3C1CCCCC2N1CCOCC1 (stereo partly specified) | TK-10 renal | TGI | > 100 µM

====

# System: HL-60(TB) leukemia
# ASSAY_PROTOCOL: NCI tumour cell line growth inhibition, 48 h
If the reported TGI equals or exceeds 2 µM, assign true (1). If not, assign false (0).

COMPOUND | CLASS_LABEL
NC(=O)C(=O)Cc1nc2ccccc2s1 | true (1)
N#Cc1c(N)nc2n[nH]c(N)c2c1-c1ccccc1 | true (1)
CN(C)CCNC(=O)c1cccc2cc3ccc4ccccc4c3nc12 | false (0)
O=C(/C=C/c1ccc(Cl)cc1)c1ccc(Cl)s1 | true (1)
CCOc1cc2c(cc1O)CC[C@@H]1[C@@H]2CC[C@]2(C)[C@@H](O)CC[C@@H]12 | false (0)
Cc1cc(/N=C/c2ccc(Cl)cc2)n(-c2ccccc2)n1 | true (1)
Cc1cc2c3c(c1)CCCN3CCC2 | true (1)
Clc1cccc2[nH]ncc12 | true (1)
CCCCC1Cc2cc(OC)ccc2-c2n1c1cc(OC)ccc1[n+]2C (stereo unspecified) (tested in a mixture with another compound) | false (0)
O=c1[nH]c(=S)[nH]c2c(C3OC(CO)C(O)C3O)nsc12 (stereo unspecified) | true (1)
O=S(=O)(O)c1ccc2c(N=Nc3c(O)ccc4ccccc34)cccc2c1 | true (1)
